System under test: recombinant PRL-3 (Homo sapiens, UniProt O75365)
Construct: 6xHis (N, cleaved yes); made in house; host or cells: E. coli One Shot BL21 Star
Sequence (O75365 whole entry): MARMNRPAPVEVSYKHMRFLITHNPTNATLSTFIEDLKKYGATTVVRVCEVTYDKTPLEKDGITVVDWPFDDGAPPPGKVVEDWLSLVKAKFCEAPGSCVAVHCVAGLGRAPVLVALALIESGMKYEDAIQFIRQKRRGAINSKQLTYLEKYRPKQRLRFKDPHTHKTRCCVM
Test description: In vitro phosphatase assay (DiFMUP hydrolysis), PRL-3; also: test concentration or dose not given here
Type: biochemical
Conditions used: FDA-approved drug screen; activity compared to DMSO
Counter-ions that a name gives are not always drawn.
Readings of % Phosphatase Activity (compared to DMSO) PRL-3 for the listed compounds
Reported property: % Phosphatase Activity (compared to DMSO) PRL-3 (%)

INSERT INTO measurements (compound, reading) VALUES
  ('CCOC(=O)C1=C[C@]2(CC)CCCN3CCc4c(n1c1ccccc41)[C@@H]32', 79),
  ('CN[C@@H]1[C@H](O)[C@H](NC)[C@H]2O[C@@]3(O)C(=O)C[C@@H](C)O[C@H]3O[C@@H]2[C@H]1O.Cl.Cl [Spectinomycin HCl]', 77),
  ('Cc1ccsc1C(=CCCN1CCC[C@@H](C(=O)O)C1)c1sccc1C [Tiagabine hydrochloride]', 83),
  ('CC(CN(C)C)CN1c2ccccc2CCc2ccccc21 (stereo not shown) [Trimipramine Maleate]', 90);

---

System under test: recombinant PRL-1 (Homo sapiens)
Construct: 6xHis (N, cleaved yes); made in house; host or cells: E. coli One Shot BL21 Star
Sequence (Q93096 1-173): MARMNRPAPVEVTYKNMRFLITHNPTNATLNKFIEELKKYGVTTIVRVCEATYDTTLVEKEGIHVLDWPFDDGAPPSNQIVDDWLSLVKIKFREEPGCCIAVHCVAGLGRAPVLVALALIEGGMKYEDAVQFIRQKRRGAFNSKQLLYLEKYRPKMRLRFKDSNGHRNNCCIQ
Test description: In vitro phosphatase assay (DiFMUP hydrolysis), PRL-1; also: test concentration or dose not given here
Assay type: biochemical
Conditions used: FDA-approved drug screen; compared to DMSO
Counter-ions that a name gives are not always drawn.
Reported property: % Phosphatase Activity (compared to DMSO) PRL-1 (%)

INSERT INTO measurements (molecule, result_units, reading) VALUES
  ('O=C(c1cc(Cc2n[nH]c(=O)c3ccccc23)ccc1F)N1CCN(C(=O)C2CC2)CC1 [Olaparib (AZD2281, Ku-0059436)]', '%', 88),
  ('Cn1c(=O)c2c(ncn2CC(O)CO)n(C)c1=O (stereo not shown) [Dyphylline]', '%', 100),
  ('C[C@H](O)C(=O)Nc1c(I)c(C(=O)NC(CO)CO)c(I)c(C(=O)NC(CO)CO)c1I [Iopamidol]', '%', 96),
  ('NCCCC[C@H](N[C@@H](CCc1ccccc1)C(=O)O)C(=O)N1CCC[C@H]1C(=O)O [Lisinopril]', '%', 100),
  ('O=c1[nH]c2ccccc2n1C1CCN(CCCC(c2ccc(F)cc2)c2ccc(F)cc2)CC1 [Pimozide]', '%', 91),
  ('O=C1c2ccccc2C(=O)C1c1ccccc1 [Phenindione]', '%', 93),
  ('COc1ccccc1OCCNCC(O)COc1cccc2[nH]c3ccccc3c12 (stereo not shown) [Carvedilol]', '%', 97),
  ('CC1=C(/C=C/C(C)=C/C=C/C(C)=C\C(=O)O)C(C)(C)CCC1 [Isotretinoin]', '%', 72),
  ('COc1ccc(C(=O)c2ccccc2)c(O)c1 [Oxybenzone]', '%', 99),
  ('C[C@H]1C[C@H]2[C@@H]3CCC4=CC(=O)C=C[C@]4(C)[C@H]3C(=O)C[C@]2(C)[C@@]1(O)C(=O)CO [Meprednisone]', '%', 99),
  ('OCC(O)CN1CCN(c2ccccc2)CC1 (stereo not shown) [Dropropizine]', '%', 91),
  ('Cl.Cl.Fc1ccc(C(c2ccc(F)cc2)N2CCN(C/C=C/c3ccccc3)CC2)cc1 [Flunarizine 2HCl]', '%', 111),
  ('CC[C@@H](CO)NCCN[C@@H](CC)CO [Ethambutol HCl]', '%', 99),
  ('CNC[C@H](O)c1cccc(O)c1 [Phenylephrine HCl]', '%', 103),
  ('CC1COc2c(N3CCN(C)CC3)c(F)cc3c(=O)c(C(=O)O)cn1c23 (stereo not shown) [Ofloxacin]', '%', 301),
  ('CCOC(=O)[C@H](CCc1ccccc1)N[C@@H](C)C(=O)N1Cc2ccccc2C[C@H]1C(=O)O [Quinapril HCl]', '%', 92),
  ('O=C(C[S+]([O-])Cc1ccco1)NC/C=C\COc1cc(CN2CCCCC2)ccn1 (stereo not shown) [Lafutidine]', '%', 114),
  ('CCCCCCc1ccc(O)cc1O [Hexylresorcinol]', '%', 90),
  ('CC(NCCc1ccc(O)cc1)C(O)c1ccc(O)cc1 (stereo not shown) [Ritodrine HCl]', '%', 113);
